# SYSTEM NAME: oxytocin receptor (CHO-OTR/NFAT-β-Lactamase cells) (Homo sapiens)
# Construct: expressed in transfected cells; host or cells: CHO-OTR cell line, further transfected with the NFAT-β-lactamase reporter construct
# Sequence (P30559 whole entry, species assumed): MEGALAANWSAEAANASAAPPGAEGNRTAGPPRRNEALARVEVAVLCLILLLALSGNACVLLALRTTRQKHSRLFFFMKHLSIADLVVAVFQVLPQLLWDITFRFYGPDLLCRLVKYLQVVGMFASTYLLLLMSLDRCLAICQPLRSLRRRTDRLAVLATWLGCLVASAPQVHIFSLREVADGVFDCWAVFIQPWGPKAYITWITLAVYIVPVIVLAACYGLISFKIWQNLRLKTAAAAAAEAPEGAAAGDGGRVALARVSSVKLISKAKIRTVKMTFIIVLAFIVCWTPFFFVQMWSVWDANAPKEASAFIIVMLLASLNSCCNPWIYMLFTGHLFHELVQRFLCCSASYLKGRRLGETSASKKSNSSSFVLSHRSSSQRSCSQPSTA
# METHOD NOTES: Oxytocin Receptor Beta-Lactamase Assay
# Assay type: cell-based
# PARTICULARS: oxytocin stimulation, read-out: oxytocin antagonist activity, expressed as a Ki value
MEASUREMENT LABEL: pKi
# log scale: pKi equals minus log10 of the concentration in mol/L

item_smiles=COc1ccc(-n2c(C)nnc2N2CCC(Oc3ccc(F)cc3C)CC2)cn1 assay_result=8.38
item_smiles=COCc1nnc(N2CC(Oc3cccc(C)c3C)C2)n1-c1ccc(OC)nc1 assay_result=7.86
item_smiles=COCc1nnc(N2CCC(Oc3cccc(F)c3C)CC2)n1-c1ccc(OC)nc1 assay_result=8.74

Turning now to a further molecule:
Output measured pKi for this item: COCc1nnc(N2CC(Oc3ccc(F)cc3Cl)C2)n1-c1ccc(OC)nc1
8.05

The origin of these recorded values is patent US8207198B2.
